Target: PaHisGS (short-form ATP phosphoribosyltransferase catalytic subunit) (Psychrobacter arcticus, UniProt Q4FQF7)
Sequence (Q4FQF7 whole entry): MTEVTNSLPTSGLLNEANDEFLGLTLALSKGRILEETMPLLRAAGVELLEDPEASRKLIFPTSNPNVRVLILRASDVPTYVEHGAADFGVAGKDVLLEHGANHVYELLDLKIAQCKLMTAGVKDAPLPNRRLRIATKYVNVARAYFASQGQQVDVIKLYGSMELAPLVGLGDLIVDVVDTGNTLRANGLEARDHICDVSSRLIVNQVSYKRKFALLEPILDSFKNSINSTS
Assay: steady-state inhibition kinetics, absorbance at […] nm (IC50 […]; Ki […] vs PRPP, […] vs ATP)
pKi: −log10 of the molar value.
ENDPOINT: pKi

{"columns": ["COMPOUND", "RECORDED MEASUREMENT"],
 "data": [
  ["Nc1ncnc2c1ncn2[C@@H]1O[C@H](COP(=O)(O)O)[C@@H](O)[C@H]1O [AMP]", 4.60]
]}

###

Target: PaHisGS (short-form ATP phosphoribosyltransferase catalytic subunit) (Psychrobacter arcticus)
Experiment: ITC (single-site model, […]); DSF Tm shift +[…] °C

{"columns": ["COMPOUND", "RESULT UNIT", "Kd"],
 "data": [
  ["O=P(O)(O)OC[C@H]1O[C@H](OP(=O)(O)OP(=O)(O)O)[C@H](O)[C@@H]1O [PRPP]", "µM", 12]
]}

The origin of these recorded values is paper PMC6128619.
